pKi: −log10 of the molar value.
Below, pKi values reported for 5-hydroxytryptamine receptor 7 (Homo sapiens) across several publications.
result.type: pKi

molecule=O=C([C@@H]1Cc2ccccc2CN1C(=O)CCCCCCN1CCN(c2ccccc2-c2ccccc2)CC1)N1CCCCC1 result_type=pKi obs_value=7.92

a = Cc1cccc(S(=O)(=O)N[C@H]2CCN(CCCc3noc4cc(F)ccc34)C2)c1
b = CSc1ccccc1N1CCN(CCCCCCC(=O)N2Cc3ccccc3C[C@H]2C(N)=O)CC1
c = Cc1ccc(OCc2nc(N)nc(N3CCN(C)CC3)n2)cc1
d = CC(C)Oc1ccccc1OCCN1CCC(NS(=O)(=O)c2ccc(F)cc2)CC1
Query: Arrange the 4 molecules by rising pKi, starting with the smallest. Labels, requested order.
Reply: c, b, d, a

P = NS(=O)(=O)NCCCCCCN1CCN(c2cccc(Cl)c2)CC1
Q = CCC1(CCCCN2CCN(c3cccc(Cl)c3)CC2)C(=O)Nc2c1cc(Cl)c(F)c2Cl (stereo not drawn)
R = COc1ccccc1N1CCN(CC(O)CN2C(=O)NC(C)(c3ccc4ccccc4c3)C2=O)CC1 (stereo not drawn)
Query: Arrange the 3 molecules by rising pKi, starting with the smallest. Labels, requested order.
Reply: P, Q, R

I = O=S(=O)(NCCCCN1CCc2ccccc2C1)c1cccc2ccccc12
II = C[C@H](Nc1nc(N)nc(NCCc2ccccn2)n1)c1ccc(F)cc1
Query: Lower pKi: I or II ? Kindly give the label for the entry you pick.
Reply: I
(I: 6.53, II: 8.05)

----------
pKi: −log10 of the molar value.
Below, pKi values reported for 5-hydroxytryptamine receptor 7 (Homo sapiens) across several publications.

Some solved entries appear below for comparison.
compound="CC1(c2ccccc2)C(=O)Nc2cc(Cl)cc(Cl)c2C1=O (racemic)" assay_target="5-hydroxytryptamine receptor 7 (Homo sapiens)" obs_value="< 5.00"
compound=CC(C)n1nc(S(=O)(=O)c2cccc3ccccc23)c2cc(N3CCNCC3)ccc21 assay_target="5-hydroxytryptamine receptor 7 (Homo sapiens)" obs_value="< 5.30"

// below: pKi requested for another compound
Bench note, 5-hydroxytryptamine receptor 7 (Homo sapiens): entry "C[C@H](Nc1ccnc(NCCc2ccc(F)cc2)c1)c1ccccc1" , its pKi = 9.40

----------
Below, Ki values reported for 5-hydroxytryptamine receptor 7 (Homo sapiens) across several publications.
result.type: Ki (nM)

molecule=NC(N)=NC(=O)c1ccc2c(c1)[nH]c1ccccc12 value_unit=nM obs_value=42

P = O=S(=O)(c1cccc2ncccc12)N1CCC(CCN2CCN(c3ccc(Cl)cc3)CC2)CC1
Q = COc1cc2ncnc(N3CCC(CN4CCN(c5ccc(Cl)cc5)CC4)C3)c2cc1OC (stereo not drawn)
Query: Larger number for Ki: P , or Q ? Kindly give the label for the entry you pick.
Reply: Q
(Q: 138 nM, P: 37 nM)

----------
Below, Ki values reported for UniProt P34969 across several publications.
result.type: Ki (nM)

Some solved entries appear below for comparison.
molecule=O=c1n(CCCCCCN2CCN(c3cccc4c3OCCO4)CC2)nc2ccccn12 obs_value=271
molecule=Cc1cccc(S(=O)(=O)NCCCN=C(N)N2CCC(c3ccccc3)CC2)c1 obs_value=276
molecule="CN(C)C[C@@H]1CC2c3ccccc3Sc3ccc(F)cc3[C@H]2O1 (some centres not stated)" obs_value=34

A = NC(N)=NC(=O)c1ccc2c(c1)C(O)c1c(Cl)cccc1-2 (configuration not stated)
B = O=C1c2ccccc2S(=O)(=O)N1CCCCCCN1CCN(c2cccc(Cl)c2Cl)CC1
Query: Lower Ki: A or B ? Kindly give the label for the entry you pick.
Reply: A
(A: 33 nM, B: 119 nM)
